Test: Cell Viability - H-4-II-E (AID 543);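 further: cells exposed to compound for 40 hours; on the % scale 0 is the no-effect control and ±100 the full control effect; nearly all actives have a fitted effect of over 35% in size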
Details: H-4-II-E rat hepatoma viability; series mostly up to 92.2 µM
Results filed as inconclusive are left out. Calls of active or inactive are those of the source. The call rests on the fitted dose curve; in most records, active means well fitted cell-killing curve with a large enough effect; inconclusive means small, poorly fitted or top-dose-only effect; inactive means flat fitted curve, though single readings scatter.
Quantity kind: outcome

Smiles data	Quantity kind	Result value
CC(C)(OOC(C)(C)c1ccccc1)c1ccccc1	outcome	inactive
O=[N+]([O-])c1ccccc1-c1ccccc1	outcome	inactive
CCOS(C)(=O)=O	outcome	inactive
ClCC(Cl)CCl	outcome	inactive
O=[N+]([O-])c1cc(Cl)c(Cl)cc1Cl	outcome	inactive
Cc1ccc(N)cc1Cl	outcome	inactive
ClCCBr	outcome	inactive
Cc1cccc(N)c1C	outcome	inactive
COC(C)(C)C	outcome	inactive
Cc1ccc(OP(=O)(Oc2ccc(C)cc2)Oc2ccc(C)cc2)cc1	outcome	inactive
CCC/C=N/O	outcome	inactive
N#CCCCCC#N	outcome	inactive
C=CCCl	outcome	inactive
CN(C)N=O	outcome	inactive
Cc1ccc(N)cc1N	outcome	inactive
CCC[N+](=O)[O-]	outcome	inactive
Cc1ccc2c(C)cccc2c1	outcome	inactive

* * *

System: HIV-1 nucleocapsid protein NCp7 (binding to TG oligonucleotide)
Test: HIV Nucleocapsid (AID 346);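 further: potency means the concentration at half of the fitted maximal effect; potency is for inhibitors that block NC binding and lower polarization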
Settings: HIV-1 NC / fluorescein-TGTGTGTG probe, fluorescence polarization
The source made the active and inactive calls. The rule behind the calls is not given here.
Reported values of Potency for individual entries
Quantity kind: Potency

Smiles data	Assay system	Result value
Cc1cccc(CNc2nc(-c3cccnc3)nc3ccccc23)c1	HIV-1 nucleocapsid protein NCp7 (binding to TG oligonucleotide)	> 20 µM (inactive)
COc1cccc(Nc2ncc3ncc(=O)n(C4CC4)c3n2)c1	HIV-1 nucleocapsid protein NCp7 (binding to TG oligonucleotide)	> 4 µM (inactive)
COc1ncc2nc(-c3ccc(F)cc3)c(=O)n(C)c2n1	HIV-1 nucleocapsid protein NCp7 (binding to TG oligonucleotide)	> 20 µM (inactive)
CN(C)c1ccc(-c2nc(NCCN3CCOCC3)c3ccccc3n2)cc1	HIV-1 nucleocapsid protein NCp7 (binding to TG oligonucleotide)	> 20 µM (inactive)
N#Cc1ccc(CN2CCC3(CC2)CCN(C(=O)c2ccco2)CC3)cc1	HIV-1 nucleocapsid protein NCp7 (binding to TG oligonucleotide)	> 20 µM (inactive)
COc1ccc(-c2nc3cnc(N(C)C)nc3n(-c3ccccc3)c2=O)cc1	HIV-1 nucleocapsid protein NCp7 (binding to TG oligonucleotide)	> 20 µM (inactive)

* * *

Test: Cell Viability - LYMP2-015 (AID 971);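 further: cells exposed to compound for 24 h; nearly all actives have a fitted effect of over 55% in size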
Conditions: LYMP2-015 lymphoblastoid cell viability; series mostly up to 92.2 µM
Excerpt: NIH Chemical Genomics Center [NCGC] NIH Molecular Libraries Screening Centers Network [MLSCN] National Institutes of Environmental Health Sciences [NIEHS] National Toxicology Program [NTP] We have developed a 1536-well cell-based assay for quantitative high throughput screening (qHTS) against a number of cell lines to determine in vitro cytotoxicity of small molecules. […] 8. Detection; Luminescence; Viewlux plate reader […]
Results filed as inconclusive are left out. Calls of active or inactive are those of the source. Calls come from the whole dose curve; as a rule, active = well fitted cell-killing curve with a large enough effect; inconclusive = small, poorly fitted or top-dose-only effect; inactive = flat fitted curve, though single readings scatter.
Possible outcomes: 1 (active), -1 (inactive)

Smiles data	Discrete label
O=C(O)C(Br)Br	-1
BrC(Br)Br	-1
CCN(CC)N=O	-1
Oc1cc(Cl)ccc1Cl	-1
N#C/C(N)=C(/N)C#N	-1
Cc1ccc(N)cc1Cl	-1
CC(C)OS(C)(=O)=O	-1
c1ccc(N=NNc2ccccc2)cc1	-1
O=[N+]([O-])c1cccc2c([N+](=O)[O-])cccc12	-1
Nc1ccc(-c2ccccc2)cc1	-1
Nc1ccc(Cl)c(Cl)c1	-1
CCNCC	-1
Oc1c(Cl)c(Cl)cc(Cl)c1Cl	-1
O=C(Cl)OCc1ccccc1	-1
N#C/C=C/C#N	1
BrCC(Br)(Br)Br	1
ClC(Cl)C(Cl)Cl	-1

* * *

Reported values of max response for individual entries
Biological target: Nuclear receptor subfamily 1 group I member 2 (Rattus norvegicus) (UniProt Q9R1A7)
Sequence (Q9R1A7 whole entry, looked up): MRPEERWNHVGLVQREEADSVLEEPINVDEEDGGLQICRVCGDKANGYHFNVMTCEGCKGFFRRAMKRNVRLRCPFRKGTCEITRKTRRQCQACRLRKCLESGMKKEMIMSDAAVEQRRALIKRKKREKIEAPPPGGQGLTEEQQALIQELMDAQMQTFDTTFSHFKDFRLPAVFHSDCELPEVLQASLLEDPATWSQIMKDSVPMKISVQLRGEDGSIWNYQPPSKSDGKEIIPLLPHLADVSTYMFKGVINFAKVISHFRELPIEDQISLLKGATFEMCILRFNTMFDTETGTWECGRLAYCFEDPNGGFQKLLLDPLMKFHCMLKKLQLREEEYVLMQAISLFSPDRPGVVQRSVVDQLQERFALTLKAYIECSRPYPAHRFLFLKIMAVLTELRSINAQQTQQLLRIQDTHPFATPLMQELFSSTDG
Experiment: qHTS assay for small molecule activators of the rat pregnane X receptor (rPXR) signaling pathway (AID 651751); further: 0% is about no effect
Settings: rPXR reporter cells, luciferase (One-Glo), 24 h
Quantity kind: max response (%)

Smiles data	Result value
C=CC(=O)OC	0.297
CCN(CC)CCO	0.466
Cc1cccc(C)c1N	0.51
ClP(Cl)(Cl)(Cl)Cl	0.805
ClC(Cl)C(Cl)Cl	3.27
BrCC(Br)(Br)Br	-4.89
ClC(Br)Br	0.757
O=[N+]([O-])c1cc(Cl)c(Cl)c(Cl)c1	-3.17

* * *

Assay: Cellular Toxicity (caspase-3) Hek293 (AID 664);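 further: cells exposed to compound for 16 h at 37 °C before readout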
Settings: HEK293 caspase-3 activation, DMSO = 0%, 100 µM tamoxifen = 100%; at 92.2 µM (top of the series)
Inconclusive results are not listed. Active and inactive are the calls of the source. The call rests on the fitted dose curve; in most records, active means well fitted activation curve with a large enough effect; inconclusive means small, poorly fitted or top-dose-only effect; inactive means flat fitted curve, though single readings scatter.

Smiles data	caspase-3 activation
O=Cc1ccc2c(c1)OCO2	0.153% (inactive)
CCOP(=S)(OCC)SCCSCC	0.951% (inactive)
CCOP(=S)(OCC)Oc1nc(Cl)c(Cl)cc1Cl	2.26% (inactive)

* * *

Target: Cytochrome P450 3A4 (Homo sapiens)
Assay: qHTS Assay for Inhibitors and Substrates of Cytochrome P450 3A4 (AID 884); further: nearly all actives have a fitted effect of over 50% in size
Conditions: recombinant CYP3A4, Luciferin-PPXE luminescence; series mostly up to 57.1 µM
Results filed as inconclusive are left out. Active and inactive are the calls of the source. The call rests on the fitted dose curve; in most records, active means well fitted inhibition curve with a large enough effect; inconclusive means small, poorly fitted or top-dose-only effect; inactive means no such curve, though single readings can be large or run the other way.
Possible outcomes: yes for active, no for inactive

Compound	Assay system	Discrete label
CCCCOCC1CO1 (stereo unspecified)	Cytochrome P450 3A4 (Homo sapiens)	no
CCOP(=S)(OCC)Oc1nc(Cl)c(Cl)cc1Cl	Cytochrome P450 3A4 (Homo sapiens)	yes
O=C(O)CCl	Cytochrome P450 3A4 (Homo sapiens)	no
COP(=S)(OC)SCn1nnc2ccccc2c1=O	Cytochrome P450 3A4 (Homo sapiens)	yes
Nc1ccc(Cc2ccc(N)cc2)cc1	Cytochrome P450 3A4 (Homo sapiens)	yes
Cc1cccc(C)c1N	Cytochrome P450 3A4 (Homo sapiens)	no

* * *

Assay: Cell Viability - LYMP1-002 - Assay at 16 hr (AID 948);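 further: 0% = DMSO alone and full effect = 92 µM tetraoctylammonium bromide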
Conditions: LYMP1-002 lymphoblastoid cell viability; series mostly up to 92.2 µM
Records with an inconclusive call do not appear. Calls of active or inactive are those of the source. The call rests on the fitted dose curve; in most records, active means well fitted cell-killing curve with a large enough effect; inconclusive means small, poorly fitted or top-dose-only effect; inactive means flat fitted curve, though single readings scatter.
Quantity kind: outcome

Molecule	Quantity kind	Result value
COC(=O)Nc1cccc(OC(=O)Nc2cccc(C)c2)c1	outcome	inactive
CCBr	outcome	inactive
COC(=O)Nc1nc2ccccc2[nH]1	outcome	inactive
NC1CCC(CC2CCC(N)CC2)CC1 (centres undefined)	outcome	inactive
Oc1cccc(Cl)c1Cl	outcome	inactive
Oc1cccc(Cl)c1	outcome	inactive
c1ccoc1	outcome	inactive
Nc1cc(Cl)cc(Cl)c1	outcome	inactive
O=[N+]([O-])c1cccc(O)c1	outcome	inactive

* * *

Test: Cell Viability - LYMP2-006 (AID 978);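 further: cells exposed to compound for 24 hours; on the % scale 0 is the no-effect control and ±100 the full control effect; nearly all actives have a fitted effect of over 60% in size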
Conditions: LYMP2-006 lymphoblastoid cell viability, qHTS; series mostly up to 92.2 µM
Inconclusive results are not listed. The source made the active and inactive calls. The call rests on the fitted dose curve; in most records, active means well fitted cell-killing curve with a large enough effect; inconclusive means small, poorly fitted or top-dose-only effect; inactive means flat fitted curve, though single readings scatter.
Quantity kind: outcome

Compound	Quantity kind	Result value
c1ccc(N=NNc2ccccc2)cc1	outcome	inactive
CCOC(=O)CC(SP(=O)(OC)OC)C(=O)OCC (stereo unspecified)	outcome	inactive
O=S(=O)(Cl)c1ccccc1	outcome	inactive
Cc1ccc2c(C)cccc2c1	outcome	inactive
Cl/C=C\Cl	outcome	inactive
CC(C)OS(C)(=O)=O	outcome	inactive
O=P(OCCCl)(OCCCl)OCCCl	outcome	inactive
O=[N+]([O-])c1cc(Cl)c(Cl)c(Cl)c1	outcome	inactive
CCOP(=S)(OCC)SCCSCC	outcome	inactive
O=[N+]([O-])c1cccc(O)c1	outcome	inactive
Clc1cc(Cl)c(Cl)c(Cl)c1	outcome	inactive
S=C1NCCN1	outcome	inactive
C=CC(=O)OCC(CC)CCCC (stereo unspecified)	outcome	inactive
O=Cc1ccc(Cl)cc1Cl	outcome	inactive
C=CC(=O)OCCN(C)C	outcome	inactive
O=c1ccc(=O)[nH][nH]1	outcome	inactive

* * *

Assay: Cell Viability - NIH 3T3 (AID 541);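 further: cells exposed to compound for 40 hours; nearly all actives have a fitted effect of over 25% in size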
Details: NIH 3T3 cell viability, qHTS
Inconclusive results are not listed. Activity calls are given as the source filed them. Calls follow the shape of the dose curve; as a rule, active = well fitted cell-killing curve with a large enough effect; inconclusive = small, poorly fitted or top-dose-only effect; inactive = flat fitted curve, though single readings scatter.
Possible outcomes: active, inactive

Compound	Discrete label
CC12CC1(C)C(=O)N(c1cc(Cl)cc(Cl)c1)C2=O (configuration not stated)	inactive
CCSC(=O)N1CCCCCC1	inactive
OCCBr	inactive
ClC(Cl)(Cl)C(Cl)(Cl)Cl	inactive
O=[N+]([O-])/C=C/c1ccccc1	active
CCCCCc1cc(O)cc(O)c1	inactive
O=C(O)c1cccc(Cl)c1	inactive
Clc1cccc(Cl)c1Cl	inactive
CCCCOC(C)=O	inactive
O=C(O)C(Cl)Br (configuration not stated)	inactive
O=P(OCCCl)(OCCCl)OCCCl	inactive
Nc1cc(Cl)cc(Cl)c1	inactive
Clc1cc(Cl)c(Cl)c(Cl)c1	inactive
CCOP(=S)(OCC)Oc1nc(Cl)c(Cl)cc1Cl	inactive
c1ccoc1	inactive
C=CC(=O)OCC(C)C	inactive
Nc1c(Br)cc([N+](=O)[O-])cc1[N+](=O)[O-]	inactive
O=[N+]([O-])c1cccc2c([N+](=O)[O-])cccc12	inactive
CC[N+](=O)[O-]	inactive
CC(C)[C@]12CC(=O)[C@H](C)[C@H]1C2	inactive
C=CC=O	inactive
FC(Cl)(Cl)Cl	inactive
ClCCBr	inactive
CC(C)CON=O	inactive
Cc1ccccc1[N+](=O)[O-]	inactive
ClCC(Br)CBr (configuration not stated)	inactive
C=CC(=O)OC	inactive
Cc1ccc(N)cc1Cl	inactive
CC(C)C#N	inactive
Oc1cc(Cl)cc(Cl)c1	inactive
CC(=O)[O-].CC(=O)[O-].CC(=O)[O-].[Cr+3]	inactive
ClC=CCl	active
CC(=O)CCC(C)=O	inactive
Cc1cccc(C)c1N	inactive
Cc1ccc(N=C=O)cc1N=C=O	inactive
C=CC(=O)OCCN(C)C	inactive
O=[N+]([O-])c1c(Cl)c(Cl)c(Cl)c(Cl)c1Cl	active
Nc1cccc(Cl)c1	inactive
Nc1ccc(Cl)c(Cl)c1	inactive
[O-][Cl+2]([O-])O	inactive
Brc1ccc(Oc2ccc(Br)cc2Br)c(Br)c1	inactive
S=C1NCCN1	inactive
C(CCOCC1CO1)COCC1CO1 (configuration not stated)	inactive
CCCCC(=O)Cl	inactive
OC[P+](CO)(CO)CO	active
N#CCc1ccccc1	inactive
C1CC2OC2CC1C1CO1 (configuration not stated)	inactive
Cc1cc(-c2cc(C)c(N)c(C)c2)cc(C)c1N	inactive
Nc1cc(Cl)ccc1Cl	inactive
N#CCBr	active
O=C(O)CBr	inactive
CCN(N=O)C(N)=O	inactive
CCCCC(CC)COC(=O)c1ccc(C(=O)OCC(CC)CCCC)c(C(=O)OCC(CC)CCCC)c1 (configuration not stated)	inactive
ClC(Cl)Br	inactive
C=CCCl	inactive
ClCCOCCCl	inactive
C=CCOCC1CO1 (configuration not stated)	inactive
BrCCc1ccccc1	inactive
Nc1ccc(Cc2ccc(N)c(Cl)c2)cc1Cl	inactive
C=CC(=O)OCC(CC)CCCC (configuration not stated)	inactive
CCN(CC)N=O	inactive
Cl/C=C/CCl	inactive
CC(Cl)CCl (configuration not stated)	inactive
Cc1cnc[nH]1	inactive
CC(C)(C)c1ccccc1O	inactive
ClCCCCl	inactive
Clc1ccccc1	inactive
N#CCCCCC#N	inactive
NNC(N)=S	inactive
CCC(Cl)[N+](=O)[O-] (configuration not stated)	inactive
CCNCC	inactive
Nc1ccc(Cc2ccc(N)cc2)cc1	inactive
